The measured values listed here are drawn from patent US20210032365A1.

Please respond with reported pKd for every item in the list.
- target_desc: T1, human C1s (human, UniProt P09871 16-688)
- T1 construct: Analyte in the Biacore assays; also called hC1s; serum-derived human C1s (CompTech)
- T1 sequence: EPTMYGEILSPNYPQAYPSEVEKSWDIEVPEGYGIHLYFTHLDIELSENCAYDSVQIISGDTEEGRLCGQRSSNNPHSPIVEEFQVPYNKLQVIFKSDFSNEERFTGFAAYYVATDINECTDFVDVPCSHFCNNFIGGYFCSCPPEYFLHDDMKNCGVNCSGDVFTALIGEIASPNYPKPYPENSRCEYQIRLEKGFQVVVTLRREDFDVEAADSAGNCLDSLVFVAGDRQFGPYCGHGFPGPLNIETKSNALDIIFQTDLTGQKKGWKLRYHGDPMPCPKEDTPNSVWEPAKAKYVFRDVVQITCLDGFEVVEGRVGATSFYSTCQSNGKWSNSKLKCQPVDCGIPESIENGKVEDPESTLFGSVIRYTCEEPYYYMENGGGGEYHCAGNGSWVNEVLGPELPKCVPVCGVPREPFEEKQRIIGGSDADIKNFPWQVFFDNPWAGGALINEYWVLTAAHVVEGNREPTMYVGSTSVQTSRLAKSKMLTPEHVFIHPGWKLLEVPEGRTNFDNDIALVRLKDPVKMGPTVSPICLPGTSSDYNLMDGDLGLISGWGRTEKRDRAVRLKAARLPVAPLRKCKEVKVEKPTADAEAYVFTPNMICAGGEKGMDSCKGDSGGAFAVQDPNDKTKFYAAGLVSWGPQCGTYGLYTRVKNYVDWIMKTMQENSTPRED
- assay_details: SPR (Biacore T200, 37C), Ab captured on protein A/G; pH 5.8, 3 uM Ca
When answering, recall that pKd equals minus log10 of the concentration in mol/L, and write that number alone.

Fill in pKd for record C1_IPN92H0165-SG4GK/IPN93L0024-SK1 (antibody, human IgG4 S228P, kappa, name in Kabat numbering, V domains shown, Substitutions from IPN009VH2, Kabat numbering; also called IPN92H0165/IPN93L0024) VH: EVMLVESGGGLVKPGGSLRLSCAASGFTFSNYAMSWVRQAPGKGLEWVATISSGGSHTYYDDSVKGRFTISRDNSKDTLYLQMNSLRAEDTALYYCARLFTGHAMDYWGQGTLVTVSS VL: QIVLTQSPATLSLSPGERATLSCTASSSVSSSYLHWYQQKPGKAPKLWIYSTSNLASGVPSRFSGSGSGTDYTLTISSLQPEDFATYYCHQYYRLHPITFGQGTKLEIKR
8.09

Fill in pKd for record C1_IPN92H0253-SG4GK/IPN93L0024-SK1 (antibody, human IgG4 S228P, kappa, name in Kabat numbering, V domains shown, Substitutions from IPN009VH2, Kabat numbering; also called IPN92H0253/IPN93L0024) VH: EVMLVESGGGLVKPGGSLRLSCAASGFTFSNYAMSWVRQAPGKGLEWVATISSGGSHTYYLDSVKGRFTISRDNSKDTLYLQMNSLRAEDTALYYCARLFTGHAMKYWGQGTLVTVSS VL: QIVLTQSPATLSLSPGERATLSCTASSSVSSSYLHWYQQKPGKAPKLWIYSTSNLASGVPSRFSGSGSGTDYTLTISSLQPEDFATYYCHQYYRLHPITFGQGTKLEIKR
7.60

Fill in pKd for record C1_IPN92H0159-SG4GK/IPN93L0024-SK1 (antibody, human IgG4 S228P, kappa, name in Kabat numbering, V domains shown, Substitutions from IPN009VH2, Kabat numbering; also called IPN92H0159/IPN93L0024) VH: EVMLVESGGGLVKPGGSLRLSCAASGFTFSNYAMSWVRQAPGKGLEWVATISSGGSHTYDLDSVKGRFTISRDNSKDTLYLQMNSLRAEDTALYYCARLFTGHAMDYWGQGTLVTVSS VL: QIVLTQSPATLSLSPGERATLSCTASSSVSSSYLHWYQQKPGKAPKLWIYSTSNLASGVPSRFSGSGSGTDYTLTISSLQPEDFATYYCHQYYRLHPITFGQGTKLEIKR
8.13

Fill in pKd for record C1_IPN92H0282-SG4GK/IPN93L0091-SK1 (antibody, human IgG4 S228P, kappa, name in Kabat numbering, V domains shown, Substitutions from IPN009VH2 / IPN009VK3, Kabat numbering; also called IPN92H0282/IPN93L0091) VH: EVMLVESGGGLVKPGGSLRLSCAASGFTFSNYAMSWVRQAPGKGLEWVATISSGGSHTYELDSVDERFTISRDNSKDTLYLQMNSLRAEDTALYYCARLFTKHAMDYWGQGTLVTVSS VL: QIVLTQSPATLSLSPGERATLSCTASSSVSSSRLHWYQQKPGKAPKLWIYSTSNLASGVPSRFSGSGSGTDYTLTISSLQPEDFATYYCHQYYRLHPITFGQGTKLEIKR
8.66

Fill in pKd for record C1_IPN92H0282-SG4GK/IPN93L0024-SK1 (antibody, human IgG4 S228P, kappa, name in Kabat numbering, V domains shown, Substitutions from IPN009VH2, Kabat numbering; also called IPN92H0282/IPN93L0024) VH: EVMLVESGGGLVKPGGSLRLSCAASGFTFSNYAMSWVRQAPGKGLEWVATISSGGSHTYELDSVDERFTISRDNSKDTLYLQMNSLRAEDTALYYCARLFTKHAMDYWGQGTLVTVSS VL: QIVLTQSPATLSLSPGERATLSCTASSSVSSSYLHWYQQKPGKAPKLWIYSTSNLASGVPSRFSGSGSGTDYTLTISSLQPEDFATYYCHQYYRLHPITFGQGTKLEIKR
8.07

Fill in pKd for record C1_IPN92H0156-SG4GK/IPN93L0024-SK1 (antibody, human IgG4 S228P, kappa, name in Kabat numbering, V domains shown, Substitutions from IPN009VH2, Kabat numbering; also called IPN92H0156/IPN93L0024) VH: EVMLVESGGGLVKPGGSLRLSCAASGFTFSNYAMSWVRQAPGKGLEWVATISSGGSHTKYLDSVKGRFTISRDNSKDTLYLQMNSLRAEDTALYYCARLFTGHAMDYWGQGTLVTVSS VL: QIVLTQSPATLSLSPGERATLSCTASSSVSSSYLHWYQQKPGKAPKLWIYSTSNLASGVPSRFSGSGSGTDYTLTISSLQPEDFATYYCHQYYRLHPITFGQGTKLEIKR
8.01

Fill in pKd for record C1_IPN92H0288-SG4GK/IPN93L0212-SK1 (antibody, human IgG4 S228P, kappa, name in Kabat numbering, V domains shown, VL substitutions from IPN009VK3, Kabat numbering; also called IPN92H0288/IPN93L0212) VH: EVMLVESGGGLVKPGGSLRLSCAASGFTFSNYAMSWVRQAPGKGLEWVATISSGGSHTYELDSVDGRFTISRDNSKDTLYLQMNSLRAEDTALYYCARLFTKHAMDYWGQGTLVTVSS VL: QIVLTQSPATLSLSPGERATLSCTASSEVSESRLHWYQQKPGKAPKLWIYSTSNLASGVPSRFSGSGSGTDYTLTISSLQPEDFATYYCHQYYRLHPITFGQGTKLEIKR
8.17
